- targetOfAssay: T1, Nrd1_(147-222/290-489) (S. cerevisiae, UniProt P53617 147-489, lacking residues 223–289)
- T1 sequence: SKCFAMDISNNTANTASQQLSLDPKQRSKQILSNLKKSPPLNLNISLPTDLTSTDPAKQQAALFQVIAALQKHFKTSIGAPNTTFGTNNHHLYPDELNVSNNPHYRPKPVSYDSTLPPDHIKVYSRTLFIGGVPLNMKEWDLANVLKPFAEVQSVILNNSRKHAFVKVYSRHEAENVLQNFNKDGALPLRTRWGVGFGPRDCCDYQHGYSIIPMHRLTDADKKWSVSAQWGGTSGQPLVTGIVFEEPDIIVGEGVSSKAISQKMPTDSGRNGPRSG
- assayProtocol: ITC
experimentalEndpoint: Kd (nM)

| binder | assayResult |
| --- | --- |
| Nrd1 interaction domain of Nab3 (Nab3 191-261) (domain or fragment, S. cerevisiae, UniProt P38996 191-261, looked up, 15N/13C-labelled or unlabelled for NMR; natural abundance for ITC; also called NRID; Nab3 NRID; source: E. coli BL21(DE3), purified (IMAC, TEV digestion, second IMAC, gel filtration); not shown: TxA (E. coli thioredoxin A), N-terminal, cleaved; His6, N-terminal, cleaved) REENDNTHFPTNMENVNYDLLQKQVKYIMDSNMLNLPQFQHLPQEEKMSAILAMLNSNSDTALSVPPHDST | 36 |

Data provenance is paper PMC8761494.
